Documented D value (dosewise additivity value) across a set of molecules
System: HIV
protocol: Test Example 3: test for confirmation of combined use effect
Type: cell-based
Parameters: key: <-0.1 synergy, -0.1 to 0.1 additive, >0.1 antagonism
condition_label: combination with compound (B) GS-6207 (CAI)
Lab note: write the figure by itself, no unit.

Inquiry: Given the entry CCN1C(=O)c2c(O)c(=O)c(C(=O)NCc3cccc(Cl)c3F)cn2N2[C@H]3COCC3C[C@@H]12 (some centres unmarked) [II-052] , what D value (dosewise additivity value) was observed with HIV?
Reply text: −0.003

Inquiry: Again, but for C[C@H]1C[C@H]2N(C)C(=O)c3c(O)c(=O)c(C(=O)NCc4cccc(Cl)c4F)cn3N2C1 [II-036]
Reply text: −0.117

Inquiry: Again, but for CN1C(=O)c2c(O)c(=O)c(C(=O)NCc3cccc(Cl)c3F)cn2N2CCCC[C@@H]12 [II-092]
Reply text: −0.093

Inquiry: Again, but for CCN1C(=O)c2c(O)c(=O)c(-c3nnc(Cc4c(F)cc(F)cc4F)s3)cn2N2CCCC[C@@H]12 [Compound I-007]
Reply text: −0.040

Inquiry: Again, but for CCN1C(=O)c2c(O)c(=O)c(-c3nnc(Cc4ccc(F)cc4F)s3)cn2N2C[C@@H](C)C[C@@H]12 [II-109]
Reply text: −0.059

Inquiry: Again, but for COC[C@@H]1CC[C@H]2N(C)C(=O)c3c(O)c(=O)c(C(=O)NCc4cccc(Cl)c4F)cn3N12 [II-026]
Reply text: −0.043

Inquiry: Again, but for CCN1C(=O)c2c(O)c(=O)c(C(=O)NCc3c(F)cc(F)cc3F)cn2N2C[C@@H](C)CC[C@@H]12 [II-096]
Reply text: −0.125

Inquiry: Again, but for CCN1C(=O)c2c(O)c(=O)c(-c3nnc(Cc4ccc(F)cc4F)s3)cn2N2[C@H](COC)CC[C@@H]12 [II-110]
Reply text: 0.025

====

Documented D value (dosewise additivity value) across a set of molecules
Tested on: HIV
protocol: Test Example 3: test for confirmation of combined use effect
Assay type: cell-based
Design: key: <-0.1 synergy, -0.1 to 0.1 additive, >0.1 antagonism
condition_label: combination with compound (B) Compound C (CAI)
Lab note: write the figure by itself, no unit.

Use the examples below as a reference point.
>  <molecule>
CCN1C(=O)c2c(O)c(=O)c(-c3nnc(Cc4c(F)cc(F)cc4F)s3)cn2N2CCCC[C@@H]12

>  <quantity_measured>
D value (dosewise additivity value)

>  <assay_result>
0.059

$$$$
>  <molecule>
CCN1C(=O)c2c(O)c(=O)c(-c3nnc(Cc4ccc(F)cc4F)s3)cn2N2[C@H](COC)CC[C@@H]12

>  <quantity_measured>
D value (dosewise additivity value)

>  <assay_result>
0.075

$$$$
>  <molecule>
CCN1C(=O)c2c(O)c(=O)c(C(=O)NCc3c(F)cc(F)cc3F)cn2N2C[C@@H](C)CC[C@@H]12

>  <quantity_measured>
D value (dosewise additivity value)

>  <assay_result>
0.065

$$$$
>  <molecule>
CN1C(=O)c2c(O)c(=O)c(C(=O)NCc3cccc(Cl)c3F)cn2N2CCCC[C@@H]12

>  <quantity_measured>
D value (dosewise additivity value)

>  <assay_result>
0.056

$$$$
>  <molecule>
CCN1C(=O)c2c(O)c(=O)c(C(=O)NCc3cccc(Cl)c3F)cn2N2[C@H]3COCC3C[C@@H]12 (some centres unmarked)

>  <quantity_measured>
D value (dosewise additivity value)

>  <assay_result>
0.038

$$$$
>  <molecule>
COC[C@@H]1CC[C@H]2N(C)C(=O)c3c(O)c(=O)c(C(=O)NCc4cccc(Cl)c4F)cn3N12

>  <quantity_measured>
D value (dosewise additivity value)

>  <assay_result>
0.043

$$$$
>  <molecule>
CCN1C(=O)c2c(O)c(=O)c(-c3nnc(Cc4ccc(F)cc4F)s3)cn2N2C[C@@H](C)C[C@@H]12

>  <quantity_measured>
D value (dosewise additivity value)

>  <assay_result>
0.071

$$$$

Now consider a different molecule.
Inquiry: Return reported D value (dosewise additivity value); argument: `C[C@H]1C[C@H]2N(C)C(=O)c3c(O)c(=O)c(C(=O)NCc4cccc(Cl)c4F)cn3N2C1`
Reply text: 0.032
